# ASSAYED_SYSTEM: ERβ (Homo sapiens, UniProt Q92731)
# Sequence (Q92731 whole entry): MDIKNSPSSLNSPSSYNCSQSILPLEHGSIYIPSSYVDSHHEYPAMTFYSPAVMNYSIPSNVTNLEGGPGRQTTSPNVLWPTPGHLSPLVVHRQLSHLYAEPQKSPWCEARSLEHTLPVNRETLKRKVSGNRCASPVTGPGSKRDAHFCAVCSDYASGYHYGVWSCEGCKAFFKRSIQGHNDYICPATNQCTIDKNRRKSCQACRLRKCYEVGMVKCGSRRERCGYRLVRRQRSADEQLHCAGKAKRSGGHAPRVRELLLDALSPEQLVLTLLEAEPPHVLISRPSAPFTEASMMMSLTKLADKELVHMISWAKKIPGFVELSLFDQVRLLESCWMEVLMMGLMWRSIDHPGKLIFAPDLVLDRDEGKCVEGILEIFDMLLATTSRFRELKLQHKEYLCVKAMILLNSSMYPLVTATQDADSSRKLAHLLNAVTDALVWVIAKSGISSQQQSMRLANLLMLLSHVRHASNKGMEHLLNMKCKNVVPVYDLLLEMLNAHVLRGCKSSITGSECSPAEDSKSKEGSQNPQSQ
# METHOD: cell-based
# Type: cell-based
# MEASUREMENT_SETUP: reporter gene assay, HEK293T
MEASURED_METRIC: transcriptional activity profile on ERβ

Oc1cc(-c2ccc(-c3ccc(F)c(O)c3)[se]2)ccc1F [Compound 2j] : partial agonist
Oc1ccc(-c2cc(Br)c(-c3ccc(O)cc3)[se]2)cc1 [Compound 6a] : partial agonist
Oc1ccc(F)c(-c2ccc(-c3cc(O)ccc3F)[se]2)c1 [Compound 2i] : partial agonist

----------
# ASSAYED_SYSTEM: ERβ (Homo sapiens, UniProt Q92731)
# METHOD: cell-based
# Format: cell-based
# MEASUREMENT_SETUP: HEK-293T, 24 h, read-out: Agonist Mode ERβ Eff (%E2)
Entries and their Emax
The reply should be a number in %, with the unit left off.

// solved cases for Emax follow
Oc1ccc(-c2c[se]cc2-c2ccc(O)cc2F)c(F)c1 : 17
Oc1ccc(-c2cc(Br)c(-c3ccc(O)cc3)[se]2)cc1 : 40
Cc1cc(-c2cc(Br)c(-c3ccc(O)c(C)c3)[se]2)ccc1O : 46
Oc1ccc(-c2cc(Br)c(-c3ccc(O)c(Cl)c3)[se]2)cc1Cl : 27

Report Emax for `Oc1ccc(-c2cc(Br)c(-c3ccc(O)cc3F)[se]2)c(F)c1` please.
50
